tested on: RPMI-8226 leukemia; assay: NCI-60 one-dose screen, 48 h (100 = growth as untreated, 0 = no growth, -100 = all killed); settings: 10 µM unless noted
About 83,000 compounds went through this panel and 20% of them were active in at least one assay; those are over-represented in the sample as a whole.
Quick reference: growth of the listed items.
REPORTED PROPERTY: growth (%)

[[record]]
smiles_input = "O=C(NCCNc1nccc(-c2c(-c3cccc(O)c3)nc3sccn23)n1)c1ccccc1O"
test_system = "RPMI-8226 leukemia"
u = "%"
value_measured = 11.6

[[record]]
smiles_input = "CCN(CC)CCNc1ccc([N+](=O)[O-])c2sc3cc(Cl)ccc3c(=O)c12"
test_system = "RPMI-8226 leukemia"
u = "%"
value_measured = 3.51

[[record]]
smiles_input = "C#C[C@@]1(O)[C@@H](CO)O[C@@H](n2cc(Br)c3c(Cl)ccnc32)[C@@H]1O"
test_system = "RPMI-8226 leukemia"
u = "%"
value_measured = 0.227

[[record]]
smiles_input = "O=C(NCCNc1nccc(-c2c(-c3cccc(O)c3)nc3sccn23)n1)Nc1cc(C(F)(F)F)cc(C(F)(F)F)c1"
test_system = "RPMI-8226 leukemia"
u = "%"
value_measured = 45.7

[[record]]
smiles_input = "O=C(O)c1ccc(-n2cc(/C=N/Nc3ccc(Cl)cc3)c(-c3ccc(F)c(F)c3)n2)cc1"
test_system = "RPMI-8226 leukemia"
u = "%"
value_measured = 24

[[record]]
smiles_input = "Cc1[nH]c2ccc(F)cc2c1CCNC(=O)C1CCN(C(=O)c2ccc(-c3ccccc3)cc2)CC1"
test_system = "RPMI-8226 leukemia"
u = "%"
value_measured = 44.5

[[record]]
smiles_input = "Fc1ccc(/C=N/n2c(-c3cc(Cl)cc(Cl)c3Cl)nn(CNc3ccc(Cl)nn3)c2=S)cc1"
test_system = "RPMI-8226 leukemia"
u = "%"
value_measured = 82.4

[[record]]
smiles_input = "COc1cc(/C=C/C(=O)c2c(C)[n+]([O-])c3ccccc3[n+]2[O-])ccc1O"
test_system = "RPMI-8226 leukemia"
u = "%"
value_measured = 104

[[record]]
smiles_input = "COc1cc(-c2nc3sc(C)cn3c2/C=C2\\C(=O)Nc3ccccc32)c(Br)c(OC)c1OC"
test_system = "RPMI-8226 leukemia"
u = "%"
value_measured = 28.6

[[record]]
smiles_input = "CCn1c(SCC(=O)c2ccc(Br)cc2)nnc1-c1cc2c([nH]c3ccccc32)c(-c2cccc(O)c2)n1"
test_system = "RPMI-8226 leukemia"
u = "%"
value_measured = 69.4

[[record]]
smiles_input = "CCOC(=O)NNc1nncc2ccccc12"
test_system = "RPMI-8226 leukemia"
u = "%"
value_measured = 105

[[record]]
smiles_input = "C[C@]12CC[C@@H]3c4ccc(O)c(N)c4CC[C@H]3[C@@H]1CC[C@@H]2O"
test_system = "RPMI-8226 leukemia"
u = "%"
value_measured = 85.5

[[record]]
smiles_input = "COc1cc(NS(=O)(=O)c2ccc(N)cc2)ncn1"
test_system = "RPMI-8226 leukemia"
u = "%"
value_measured = 109

[[record]]
smiles_input = "COc1ccc(-c2ccc(NC(=O)Nc3cccc(C(F)(F)F)c3)c(C)n2)cc1"
test_system = "RPMI-8226 leukemia"
u = "%"
value_measured = 22.6

[[record]]
smiles_input = "CC(=O)Oc1ccc(C(OC(C)=O)OC(C)=O)cc1"
test_system = "RPMI-8226 leukemia"
u = "%"
value_measured = 107

[[record]]
smiles_input = "COc1ccc(/C=C2/C(=O)Nc3cc(Cl)c(-c4csc(N)n4)cc32)cc1"
test_system = "RPMI-8226 leukemia"
u = "%"
value_measured = 39.3

[[record]]
smiles_input = "C=CCOc1ccc(/C(Cl)=N/N=C(\\Cl)c2cc(OC)c(OC)c(OC)c2)cc1"
test_system = "RPMI-8226 leukemia"
u = "%"
value_measured = 70.3

[[record]]
smiles_input = "COc1ccc(-c2nn(-c3ccc(NC(=O)c4cc(C(F)(F)F)cc(C(F)(F)F)c4)cc3)cc2-c2ccncc2)cc1Cl"
test_system = "RPMI-8226 leukemia"
u = "%"
value_measured = 10.7

[[record]]
smiles_input = "O=C(NCCNc1nccc(-c2c(-c3cccc(O)c3)nc3sccn23)n1)c1ccccc1"
test_system = "RPMI-8226 leukemia"
u = "%"
value_measured = 76.8

